Molecular target: SHP2 E76K (Homo sapiens, UniProt Q06124, E76K)
Construct: recombinantly expressed full-length SHP2 (aa 1-593) with E69K and E76K; purchased Novoprotein Scientific Inc
Sequence (Q06124 1-593 E76K): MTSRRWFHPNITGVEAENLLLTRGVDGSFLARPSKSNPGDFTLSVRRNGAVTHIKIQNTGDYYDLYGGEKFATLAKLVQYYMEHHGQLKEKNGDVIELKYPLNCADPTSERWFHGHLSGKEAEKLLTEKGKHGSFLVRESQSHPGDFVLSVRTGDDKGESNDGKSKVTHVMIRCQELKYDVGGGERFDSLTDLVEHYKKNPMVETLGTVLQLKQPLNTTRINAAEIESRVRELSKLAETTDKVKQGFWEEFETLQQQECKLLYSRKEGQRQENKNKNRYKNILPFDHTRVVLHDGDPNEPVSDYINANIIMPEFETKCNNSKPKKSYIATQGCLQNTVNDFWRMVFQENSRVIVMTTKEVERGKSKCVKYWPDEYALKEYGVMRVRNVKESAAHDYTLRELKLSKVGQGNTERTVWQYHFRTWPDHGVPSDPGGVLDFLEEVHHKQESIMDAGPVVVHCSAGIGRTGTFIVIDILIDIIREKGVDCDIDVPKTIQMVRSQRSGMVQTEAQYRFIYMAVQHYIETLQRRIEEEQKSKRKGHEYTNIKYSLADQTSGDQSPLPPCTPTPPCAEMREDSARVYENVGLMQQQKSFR
Test: In vitro activity on SHP2 mutant E76K phosphatase
Format: biochemical
Conditions: activated polypeptide not added; read-out: SHP2 E76K the activated polypeptide was not added IC50
QUANTITY MEASURED: pIC50
Notebook: values listed as pIC50 are -log10 of the concentration (mol/L).

Query string: Fill blank: measured pIC50 of the compound CNc1nccc(Sc2cnc(N3CCC4(CC3)Cc3ncccc3[C@H]4N)n3ccnc23)c1Cl is ____.
Result string: 8.38

---

system: p-ERK in KYSE-520 cells; assay: Determination of p-ERK in KYSE-520 cells (HTRF); assay type: cell-based; conditions: Homo sapiens, KYSE-520, 2 h
Assign pIC50 to each entry below.
In plain terms, pIC50 is the concentration in mol/L turned into minus its base-10 logarithm.

Query string: Given Cc1nccc(Sc2c(N)nc(N3CCC4(CC3)CO[C@@H](C)[C@H]4N)n3ccnc23)c1Cl , state its recorded pIC50.
Result string: 7.54

Query string: Need pIC50, item Cc1nc(N2CCC3(CC2)CO[C@@H](C)[C@H]3N)n2ccnc2c1-c1cccc(Cl)c1Cl [Example 2]
Result string: 7.39

Query string: May I ask what pIC50 has been recorded for Nc1nc(N2CCC3(CCC[C@H]3N)CC2)n2ccnc2c1-c1cccc(Cl)c1Cl ?
Result string: 7.07

Query string: Quick one: pIC50 of Nc1nccc(Sc2cnc(N3CCC4(CC3)Cc3ccccc3[C@H]4N)n3ccnc23)c1Cl ?
Result string: 8.57

Query string: Given the entry Nc1nc(N2CCC3(CC2)Cc2ncccc2[C@H]3N)n2ccnc2c1Sc1cccnc1C(F)(F)F , report its measured pIC50.
Result string: 8.07

Query string: # query: pIC50 of entry Nc1nccc(Sc2cnc(N3CCC4(CC3)Cc3ncccc3[C@H]4N)n3ccnc23)c1Cl
Result string: 8.10

Query string: What value of measured pIC50 is listed for N[C@@H]1c2cccnc2CC12CCN(c1ncc(Sc3ccnc(NC4CC4)c3Cl)c3nccn13)CC2 ?
Result string: 8.10

Query string: Any idea what its pIC50 is? The compound is N[C@@H]1CCCC12CCN(c1ncc(Sc3ccnc(F)c3Cl)c3nccn13)CC2
Result string: 6.71
